# target_or_test_system: T1, human CD47 (hCD47) expressed on cells (human, UniProt Q08722 19-323)
# T1 construct: Transfected CHO cells or endogenous CD47 of human cells; also called CHO-hCD47; CD47 on Raji cells
# test_details: flow cytometry, Raji cells, competition with hSIRPα
Quick reference for IC50 among some binders

# binder, value_unit, IC50
data = [
    ("h20-VH4-VL5 (candidate 20.20) (antibody, human IgG4 S228P, kappa, V domains shown, hIgG4-S228P/kappa; also called h20-H4-L5) VH: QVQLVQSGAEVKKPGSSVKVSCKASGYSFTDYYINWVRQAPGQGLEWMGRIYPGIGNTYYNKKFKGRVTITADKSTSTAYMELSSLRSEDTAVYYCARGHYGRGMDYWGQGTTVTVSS VL: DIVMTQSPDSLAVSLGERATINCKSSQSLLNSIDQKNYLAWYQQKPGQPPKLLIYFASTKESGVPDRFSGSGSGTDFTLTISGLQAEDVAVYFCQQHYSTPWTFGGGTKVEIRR", "µg/mL", 0.095),
    ("h20-VH2-VL5 (candidate 20.10) (antibody, human IgG4 S228P, kappa, V domains shown, hIgG4-S228P/kappa; also called h20-H2-L5) VH: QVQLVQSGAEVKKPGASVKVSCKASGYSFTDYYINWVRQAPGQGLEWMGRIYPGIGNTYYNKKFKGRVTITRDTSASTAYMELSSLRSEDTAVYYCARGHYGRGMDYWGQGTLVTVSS VL: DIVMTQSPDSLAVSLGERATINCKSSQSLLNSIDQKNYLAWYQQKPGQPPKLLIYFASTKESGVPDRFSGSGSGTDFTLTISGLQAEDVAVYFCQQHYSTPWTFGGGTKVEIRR", "µg/mL", 0.051),
]
